System: Acinetobacter baumannii
assay summary: Antimicrobial activity against Acinetobacter baumannii BM4651 expressing deltaadeABC genes isolated from patient with urinary tract infection by E test
conditions: BM4651, Urine
quantity: MIC (µg/mL)
Number only, in µg/mL; omit the unit.

Q) Provide MIC value for the following molecule: CC[C@H]1OC(=O)[C@H](C)[C@@H](O[C@H]2C[C@@](C)(OC)[C@@H](O)[C@H](C)O2)[C@H](C)[C@@H](O[C@@H]2O[C@H](C)C[C@H](N(C)C)[C@H]2O)[C@](C)(O)C[C@@H](C)C(=O)[C@H](C)[C@@H](O)[C@]1(C)O [ERYTHROMYCIN]
A) 4

Q) Provide MIC value for the following molecule: CCn1cc(C(=O)O)c(=O)c2cc(F)c(N3CCN(C)CC3)cc21 [PEFLOXACIN]
A) 24

Q) Provide MIC value for the following molecule: CN(C)c1cc(NC(=O)CNC(C)(C)C)c(O)c2c1C[C@H]1C[C@H]3[C@H](N(C)C)C(O)=C(C(N)=O)C(=O)[C@@]3(O)C(O)=C1C2=O [TIGECYCLINE]
A) 0.5

Q) Provide MIC value for the following molecule: C[C@@H](O)[C@H]1C(=O)N2C(C(=O)O)=C(SCCNC=N)C[C@H]12 [IMIPENEM ANHYDROUS]
A) 0.5

Q) Provide MIC value for the following molecule: CC[C@H]1OC(=O)[C@H](C)[C@@H](O[C@H]2C[C@@](C)(OC)[C@@H](O)[C@H](C)O2)[C@H](C)[C@@H](O[C@@H]2O[C@H](C)C[C@H](N(C)C)[C@H]2O)[C@](C)(O)C[C@@H](C)CN(C)[C@H](C)[C@@H](O)[C@]1(C)O [AZITHROMYCIN]
A) 1.5

----------
Test system: Acinetobacter baumannii
assay summary: Antimicrobial activity against Acinetobacter baumannii BM4579 expressing adeIJK genes with pAT807 isolated from patient with urinary tract infection by E test
conditions: BM4579, Urine
Provide the reported MIC of each item.
Number only, in µg/mL; omit the unit.

Q) Provide MIC value for the following molecule: `CO[C@H]1/C=C/O[C@@]2(C)Oc3c(C)c(O)c4c(O)c(c(/C=N/N5CCN(C)CC5)c(O)c4c3C2=O)NC(=O)/C(C)=C\C=C\[C@H](C)[C@H](O)[C@@H](C)[C@@H](O)[C@@H](C)[C@H](OC(C)=O)[C@@H]1C`
A) 2

Q) Provide MIC value for the following molecule: `CO/N=C(\C(=O)N[C@@H]1C(=O)N2C(C(=O)O)=C(COC(C)=O)CS[C@H]12)c1csc(N)n1`
A) 3

Q) Provide MIC value for the following molecule: C[C@@H](O)[C@H]1C(=O)N2C(C(=O)O)=C(SCCNC=N)C[C@H]12 [IMIPENEM ANHYDROUS]
A) 0.25

Q) Provide MIC value for the following molecule: `COc1c(N2C[C@@H]3CCCN[C@@H]3C2)c(F)cc2c(=O)c(C(=O)O)cn(C3CC3)c12`
A) 16

Q) Provide MIC value for the following molecule: `CCC[C@@H]1C[C@@H](C(=O)N[C@@H]([C@H]2O[C@H](SC)[C@H](O)[C@@H](O)[C@H]2O)[C@H](C)Cl)N(C)C1`
A) 48

Q) Provide MIC value for the following molecule: `CCn1cc(C(=O)O)c(=O)c2cc(F)c(N3CCN(C)CC3)cc21`
A) 48

----------
Provide the reported MIC of each item.
Test system: Acinetobacter baumannii
assay summary: Antimicrobial activity against Acinetobacter baumannii BM4652 expressing adeIJK genes with pAT807 isolated from patient with urinary tract infection by E test
Assay type: functional
conditions: BM4652, Urine
Param answer (str): number followed by unit.

Q) Provide MIC value for the following compound: CCC[C@@H]1C[C@@H](C(=O)N[C@@H]([C@H]2O[C@H](SC)[C@H](O)[C@@H](O)[C@H]2O)[C@H](C)Cl)N(C)C1 [CLINDAMYCIN]
A) 2 µg/mL

Q) Provide MIC value for the following compound: CN(C)c1cc(NC(=O)CNC(C)(C)C)c(O)c2c1C[C@H]1C[C@H]3[C@H](N(C)C)C(O)=C(C(N)=O)C(=O)[C@@]3(O)C(O)=C1C2=O [TIGECYCLINE]
A) 3 µg/mL

Q) Provide MIC value for the following compound: C[C@H]1COc2c(N3CCN(C)CC3)c(F)cc3c(=O)c(C(=O)O)cn1c23.C[C@H]1COc2c(N3CCN(C)CC3)c(F)cc3c(=O)c(C(=O)O)cn1c23.O [LEVOFLOXACIN]
A) 2 µg/mL

Q) Provide MIC value for the following compound: O=C(N[C@H](CO)[C@H](O)c1ccc([N+](=O)[O-])cc1)C(Cl)Cl [CHLORAMPHENICOL]
A) 6 µg/mL

Q) Provide MIC value for the following compound: CC[C@H]1OC(=O)[C@H](C)[C@@H](O[C@H]2C[C@@](C)(OC)[C@@H](O)[C@H](C)O2)[C@H](C)[C@@H](O[C@@H]2O[C@H](C)C[C@H](N(C)C)[C@H]2O)[C@](C)(O)C[C@@H](C)C(=O)[C@H](C)[C@@H](O)[C@]1(C)O [ERYTHROMYCIN]
A) 3 µg/mL

Q) Provide MIC value for the following compound: CN(C)[C@@H]1C(O)=C(C(N)=O)C(=O)[C@@]2(O)C(O)=C3C(=O)c4c(O)cccc4[C@@](C)(O)[C@H]3C[C@@H]12 [TETRACYCLINE]
A) 0.75 µg/mL

Q) Provide MIC value for the following compound: CN(C)c1ccc(O)c2c1C[C@H]1C[C@H]3[C@H](N(C)C)C(O)=C(C(N)=O)C(=O)[C@@]3(O)C(O)=C1C2=O [MINOCYCLINE]
A) 0.75 µg/mL

Q) Provide MIC value for the following compound: CO[C@H]1/C=C/O[C@@]2(C)Oc3c(C)c(O)c4c(O)c(c(/C=N/N5CCN(C)CC5)c(O)c4c3C2=O)NC(=O)/C(C)=C\C=C\[C@H](C)[C@H](O)[C@@H](C)[C@@H](O)[C@@H](C)[C@H](OC(C)=O)[C@@H]1C [RIFAMPIN]
A) 1.5 µg/mL

Q) Provide MIC value for the following compound: CCn1cc(C(=O)O)c(=O)c2cc(F)c(N3CCN(C)CC3)cc21 [PEFLOXACIN]
A) 12 µg/mL

Q) Provide MIC value for the following compound: CC[C@H]1OC(=O)[C@H](C)[C@@H](O[C@H]2C[C@@](C)(OC)[C@@H](O)[C@H](C)O2)[C@H](C)[C@@H](O[C@@H]2O[C@H](C)C[C@H](N(C)C)[C@H]2O)[C@](C)(O)C[C@@H](C)CN(C)[C@H](C)[C@@H](O)[C@]1(C)O [AZITHROMYCIN]
A) 24 µg/mL

Q) Provide MIC value for the following compound: CO/N=C(\C(=O)N[C@@H]1C(=O)N2C(C(=O)O)=C(COC(C)=O)CS[C@H]12)c1csc(N)n1 [CEFOTAXIME]
A) 0.25 µg/mL

Q) Provide MIC value for the following compound: C[C@@H](O)[C@H]1C(=O)N2C(C(=O)O)=C(SCCNC=N)C[C@H]12 [IMIPENEM ANHYDROUS]
A) 96 µg/mL

----------
Tested on: Acinetobacter baumannii
assay summary: Antimicrobial activity against Acinetobacter baumannii BM4579 expressing adeIJK genes with pAT807 isolated from patient with urinary tract infection by E test
conditions: BM4579, Urine
Response field label takes met when MIC is strictly below 10 µg/mL and not met in all other cases.

Q) Check if MIC falls below 10 µg/mL for CN(C)[C@@H]1C(O)=C(C(N)=O)C(=O)[C@@]2(O)C(O)=C3C(=O)c4c(O)cccc4[C@@](C)(O)[C@H]3C[C@@H]12 [TETRACYCLINE] .
A) met

Q) Check if MIC falls below 10 µg/mL for CN(C)c1cc(NC(=O)CNC(C)(C)C)c(O)c2c1C[C@H]1C[C@H]3[C@H](N(C)C)C(O)=C(C(N)=O)C(=O)[C@@]3(O)C(O)=C1C2=O [TIGECYCLINE] .
A) met

Q) Check if MIC falls below 10 µg/mL for CC[C@H]1OC(=O)[C@H](C)[C@@H](O[C@H]2C[C@@](C)(OC)[C@@H](O)[C@H](C)O2)[C@H](C)[C@@H](O[C@@H]2O[C@H](C)C[C@H](N(C)C)[C@H]2O)[C@](C)(O)C[C@@H](C)CN(C)[C@H](C)[C@@H](O)[C@]1(C)O [AZITHROMYCIN] .
A) not met

Q) Check if MIC falls below 10 µg/mL for O=C(N[C@H](CO)[C@H](O)c1ccc([N+](=O)[O-])cc1)C(Cl)Cl [CHLORAMPHENICOL] .
A) not met

Q) Check if MIC falls below 10 µg/mL for CN(C)c1ccc(O)c2c1C[C@H]1C[C@H]3[C@H](N(C)C)C(O)=C(C(N)=O)C(=O)[C@@]3(O)C(O)=C1C2=O [MINOCYCLINE] .
A) met

Q) Check if MIC falls below 10 µg/mL for CC[C@H]1OC(=O)[C@H](C)[C@@H](O[C@H]2C[C@@](C)(OC)[C@@H](O)[C@H](C)O2)[C@H](C)[C@@H](O[C@@H]2O[C@H](C)C[C@H](N(C)C)[C@H]2O)[C@](C)(O)C[C@@H](C)C(=O)[C@H](C)[C@@H](O)[C@]1(C)O [ERYTHROMYCIN] .
A) not met
